target: human kappa opioid receptors (Homo sapiens, UniProt P41145); construct: expressed in transfected cells; host or cells: U2OS; test: [35S]GTPγS binding, membranes from U2OS cells; assay type: biochemical
Sequence (P41145 whole entry): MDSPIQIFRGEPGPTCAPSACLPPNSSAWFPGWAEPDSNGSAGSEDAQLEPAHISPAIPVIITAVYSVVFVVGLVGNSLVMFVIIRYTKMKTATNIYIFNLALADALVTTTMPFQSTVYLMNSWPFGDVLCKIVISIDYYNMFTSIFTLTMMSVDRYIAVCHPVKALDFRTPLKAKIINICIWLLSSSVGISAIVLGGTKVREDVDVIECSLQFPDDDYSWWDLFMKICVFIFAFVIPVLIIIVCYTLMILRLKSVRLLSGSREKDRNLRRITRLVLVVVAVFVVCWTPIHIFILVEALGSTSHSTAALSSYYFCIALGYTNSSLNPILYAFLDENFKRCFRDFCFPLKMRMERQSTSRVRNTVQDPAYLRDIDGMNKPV
Readout name: pEC50
# pEC50 = -log10(concentration in molar units)

Documented pEC50 of O=C(O)CN1CCN(C(=O)Cc2ccc(Cl)c(Cl)c2)[C@H]2[C@H]1COC[C@@H]2N1CCCC1 (racemic) : 5.60

Given item Cn1cc(CN2CCN(C(=O)Cc3ccc(Cl)c(Cl)c3)[C@H]3[C@H]2COC[C@@H]3N2CCCC2)cn1 (racemic) , the value recorded as its pEC50 is 6.97

Documented pEC50 of O=C(Cc1ccc(Cl)c(Cl)c1)N1CCN(CC2CCOCC2)[C@@H]2COC[C@H](N3CCCC3)[C@H]21 (racemic) : 6.87

pEC50 in this record for O=C(Cc1ccc(Cl)c(Cl)c1)N1CCN(CC2CCS(=O)(=O)CC2)[C@@H]2COC[C@H](N3CCCC3)[C@H]21 (racemic) : 6.49
